Sourced from paper PMC9161259

Reported values of IC50 for individual entries
test system: A549 lung carcinoma cell line; assay: Cytotoxic assay; settings: Homo sapiens, A549, 48 h, read-out: Cytotoxic activity IC50, A549

Examples with their reported IC50 follow.
O=C1C(Cl)=C(Nc2ccc(Br)cc2)C(=O)c2ccccc21 [compound 5]	> 50 µg/mL
O=C1C(Cl)=C(Nc2ccc(C(F)(F)F)cc2)C(=O)c2ccccc21 [compound 7]	> 50 µg/mL

Shift focus to the following entry.
# input If you can, please state the reported IC50 value of O=C1C=C(Nc2ccc(F)cc2)C(=O)c2ccccc21 [compound 17] .
# output > 50 µg/mL

----------
tested on: MDA-MB-231 hormone-independent breast cancer cell line; assay: Cytotoxic assay; details: Homo sapiens, MDA-MB-231, 48 h, read-out: Cytotoxic activity IC50, MDA-MB-231
ENDPOINT_LABEL: IC50

O=C1C(Cl)=C(Nc2ccc(Br)cc2)C(=O)c2ccccc21 [compound 5]	> 50 mg/L
COc1ccc(NC2=CC(=O)c3ccccc3C2=O)cc1 [compound 18]	> 50 mg/L

Shift focus to the following entry.
# input If you can, please state the reported IC50 value of O=C1C(Cl)=C(Nc2ccc(I)cc2)C(=O)c2ccccc21 [compound 6] .
# output > 50 mg/L
